target: 5-LOX (Homo sapiens, UniProt P09917); experiment: 5-LOX fluorescent assay (in vitro lipoxygenase inhibition); type: biochemical; conditions: recombinant 5-LOX cell lysate, 20 μM AA, DHR123 fluorescence; several values in a cell = repeat determinations; read-out: IC50 (μM) values for in vitro lipoxygenase inhibition, 5-LOX
Sequence (P09917 whole entry): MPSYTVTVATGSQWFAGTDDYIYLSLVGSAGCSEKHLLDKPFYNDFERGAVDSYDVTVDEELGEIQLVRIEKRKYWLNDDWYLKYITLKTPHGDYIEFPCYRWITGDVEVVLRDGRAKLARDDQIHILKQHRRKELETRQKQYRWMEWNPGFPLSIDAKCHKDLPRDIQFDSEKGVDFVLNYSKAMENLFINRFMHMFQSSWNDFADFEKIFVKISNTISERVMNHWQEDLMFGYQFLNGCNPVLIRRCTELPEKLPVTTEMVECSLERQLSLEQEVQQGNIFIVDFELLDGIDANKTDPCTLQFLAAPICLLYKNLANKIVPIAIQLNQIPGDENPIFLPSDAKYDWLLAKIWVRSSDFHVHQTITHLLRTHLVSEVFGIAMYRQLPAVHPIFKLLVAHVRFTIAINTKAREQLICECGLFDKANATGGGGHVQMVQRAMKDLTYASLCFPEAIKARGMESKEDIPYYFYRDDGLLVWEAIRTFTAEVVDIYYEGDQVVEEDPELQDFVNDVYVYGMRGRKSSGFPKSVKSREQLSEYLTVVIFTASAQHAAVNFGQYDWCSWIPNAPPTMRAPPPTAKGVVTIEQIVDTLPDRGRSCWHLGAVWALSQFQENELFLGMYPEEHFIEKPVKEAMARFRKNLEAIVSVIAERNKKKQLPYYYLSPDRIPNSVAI
Listed here are molecules together with their documented log10 IC50.
metric-name: log10 IC50 (log10 of the value in µM)

{"columns": ["given-smiles", "tested-system", "number"],
 "data": [
  ["c1ccc(Nc2ccc(-c3ccccc3)c(NCCn3cncn3)n2)cc1", "5-LOX (Homo sapiens, UniProt P09917)", -0.49],
  ["Fc1ccc(CNc2ccc(NCCn3cncn3)c(-c3ccccc3)c2F)cc1", "5-LOX (Homo sapiens, UniProt P09917)", -0.80],
  ["Fc1ccc(CNc2ccc(NCCn3cncn3)cn2)cc1", "5-LOX (Homo sapiens, UniProt P09917)", -0.29],
  ["c1ccc(Nc2ccc(-c3cccc4c3NCC4)c(NCCn3cncn3)c2)cc1", "5-LOX (Homo sapiens, UniProt P09917)", -0.85],
  ["Cc1cc(Nc2ccc(Cl)c(F)c2)ccc1NCC1(Cn2ccnc2)COC1", "5-LOX (Homo sapiens, UniProt P09917)", -1.40],
  ["Cc1cc(Nc2ccc(Cl)c(F)c2)ccc1NCC1(Cn2cccn2)COC1", "5-LOX (Homo sapiens, UniProt P09917)", -1.15],
  ["Fc1ccc(CNc2cc(F)c(NCCn3cncn3)c(-c3ccccc3)c2)cc1", "5-LOX (Homo sapiens, UniProt P09917)", -0.41]
]}
